Provide the recorded AIRE transcriptional activation functional score for the entries that follow.
B1: library; numbered along this chain (parent)
chain: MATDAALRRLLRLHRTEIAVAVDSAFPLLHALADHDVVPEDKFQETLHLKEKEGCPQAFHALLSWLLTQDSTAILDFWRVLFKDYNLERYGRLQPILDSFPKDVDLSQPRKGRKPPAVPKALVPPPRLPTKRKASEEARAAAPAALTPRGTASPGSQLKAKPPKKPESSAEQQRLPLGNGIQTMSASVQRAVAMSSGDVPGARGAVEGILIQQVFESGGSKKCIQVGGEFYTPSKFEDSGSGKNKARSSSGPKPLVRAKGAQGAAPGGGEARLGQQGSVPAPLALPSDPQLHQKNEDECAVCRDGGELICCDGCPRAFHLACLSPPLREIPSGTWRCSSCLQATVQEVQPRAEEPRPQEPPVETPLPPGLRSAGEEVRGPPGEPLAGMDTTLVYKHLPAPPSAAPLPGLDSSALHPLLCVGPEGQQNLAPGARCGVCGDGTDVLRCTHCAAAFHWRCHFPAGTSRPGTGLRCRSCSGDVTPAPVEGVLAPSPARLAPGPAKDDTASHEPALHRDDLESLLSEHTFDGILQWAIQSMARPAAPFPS

Variants of: B1
experimental protocol: AIRE transcriptional activation functional score (insulin promoter-GFP; nonsense median 0, synonymous median 1) (normalised score); higher = higher AIRE activity (more reporter activation)
test parameters: with insulin promoter-GFP reporter in HEK293
Lab note: jot down the number only; don't add units.

So for `L406Y` , the logged AIRE transcriptional activation functional score turned out to be 1.02

The measured AIRE transcriptional activation functional score associated with `R351S` reads 1.01

AIRE transcriptional activation functional score reported for this variant `P315Y` : 0.976

Note to self: AIRE transcriptional activation functional score recorded for `V37S` was -0.316

response.value for `T480L` (field: AIRE transcriptional activation functional score) = 1

Entry under test: `L273C` . Its AIRE transcriptional activation functional score was 0.741

AIRE transcriptional activation functional score reported for this variant `V188G` : 0.504

In plain terms, `L519Q` has a documented AIRE transcriptional activation functional score of 0.698

The variant listed as `G219F` has a reported AIRE transcriptional activation functional score of 0.625

// field: AIRE transcriptional activation functional score; key: `L428D` ; value = 0.545

Recorded AIRE transcriptional activation functional score (variant `K259I` ): 0.551

AIRE transcriptional activation functional score for `K294F` is 0.447

For this variant ( `K83F` ), measured AIRE transcriptional activation functional score is 0.177

The variant `V393Q` showed AIRE transcriptional activation functional score equal to -0.242

Recorded AIRE transcriptional activation functional score (variant `Y85P` ): -0.276

According to the records, this variant `R190D` displays AIRE transcriptional activation functional score of 0.292

Please fill in: AIRE transcriptional activation functional score reported for `V199D` = 0.863

Documented AIRE transcriptional activation functional score of `L428Y` : 1.05

The variant listed as `L255V` shows AIRE transcriptional activation functional score equal to 1

AIRE transcriptional activation functional score reported for this variant `P39E` : 0.999

So, `Q426T` ? Its AIRE transcriptional activation functional score was 1.17

The variant listed as `G242S` shows AIRE transcriptional activation functional score equal to 0.694

`L210R` yielded AIRE transcriptional activation functional score of 0.504

// recorded AIRE transcriptional activation functional score for `P331E` : 0.93

Recorded result, `F82Y` , AIRE transcriptional activation functional score: 0.443

Measured AIRE transcriptional activation functional score of `A413T` : 1.17

Noted for `C299H` : its AIRE transcriptional activation functional score reads 0.488

For this variant ( `D198N` ), measured AIRE transcriptional activation functional score is 1.09

Lookup result for `D410A` ; measured AIRE transcriptional activation functional score: 1.09

The reported value for `Q342A` in terms of AIRE transcriptional activation functional score is 0.362

Please fill in: AIRE transcriptional activation functional score reported for `Q342Y` = 1.06

// field: AIRE transcriptional activation functional score; key: `V192F` ; value = 0.922

The variant identified as `A321F` registered its AIRE transcriptional activation functional score at 1.1

Entry under test: `H454Q` . Its AIRE transcriptional activation functional score was 0.0498

Sample `N244Q` ; AIRE transcriptional activation functional score observed: 1.19

Form field AIRE transcriptional activation functional score, entry `E298C` : -0.0529

Measured AIRE transcriptional activation functional score, `N295K` : 1.03

Summary for this variant, `S71G` : AIRE transcriptional activation functional score is 0.809

Looking up `Q173H` , I found its AIRE transcriptional activation functional score recorded as 0.885

Lab book: AIRE transcriptional activation functional score of `S168L` noted as 0.825

Value of measured AIRE transcriptional activation functional score for the entry `G498Y` : 1.2

Where these numbers come from: the supplement of paper PMC12667976
